type: physicochemical; design: key: 1 = fibrils present; 0 non-fibrillar structures; conditions: TEM; 1 = fibrils present, 0 = non-fibrillar structures
Answer each item with its documented Fibril.
Answers are plain numbers.

Provide the reported Fibril of each entry below, same order.
1. KIKQII
2. QCKIKQIINMWQ [reference compound]

Reply text:
1: 0; 2: 1

====

Test: Conversion rate (CR) assay with fluorescamine
Assay type: physicochemical
Set-up: key: % = 100−100×filtrate/original fluorescence intensity
Details: conversion rate, fluorescamine assay
Description: For ATR FT–IR spectroscopy measurements, 200 µL of the respective 1 mg/mL PNF solution was lyophilized and the resulting powder used for measurement. All spectra were recorded on a Bruker Tensor 27 spectrometer with a diamond crystal as ATR element (PIKE MiracleTM, spectral resolution 2 cm^-1). Every sample was measured with 64 scans. Data were analyzed with OriginLab software and calculation of β–sheet content was conducted according to a previous report. TEM. […]
// classify: if (CR < 80) t else f

KFKFQF = t
KFKFQFNM = f
KIKIKIKIWW = f

Inquiry: Please state whether CR is below 80 for `CKFKQFF`
Reply text: f

Inquiry: Please state whether CR is below 80 for `QCKFKFQFNMWQ`
Reply text: f

Inquiry: Please state whether CR is below 80 for `CKIKIQIRGD`
Reply text: f

Inquiry: Please state whether CR is below 80 for `KAKAQANMWQ`
Reply text: t

Inquiry: Please state whether CR is below 80 for QCKIKQIINMWQ [reference compound]
Reply text: t

Inquiry: Please state whether CR is below 80 for `CKIKQIINMWQ`
Reply text: t

Inquiry: Please state whether CR is below 80 for `KIKIQINM`
Reply text: t

Inquiry: Please state whether CR is below 80 for `KIKQIINM`
Reply text: t

Inquiry: Please state whether CR is below 80 for `CEIEIQINM`
Reply text: t

The measurements presented in this section are drawn from paper PMC10447463.
